Listed here: items and their measured Anti α1 action (% of Control), 10^-8 M.
System: α1
Assay: Anti-α1 action (contraction of guinea pig thoracic aorta induced by norepinephrine)
Type: cell-based, Hartley male guinea pig
Details: test drug 10^-8 M; tonic contraction induced by 10^-5 M norepinephrine = 100%; helical thoracic aorta preparation, Tyrode solution, 37° C; 0.01 µM

{"columns": ["Line Notation", "Tgt", "Anti α1 action (% of Control), 10^-8 M"],
 "data": [
  ["CN1CCC(=O)c2c(ccn2CCCCN2CCC(C(=O)c3ccc(F)cc3)CC2)C1=O", "α1", "59.9 % of Control"],
  ["CN1CCC(=O)c2c(ccn2CCCCN2CCC(c3noc4cc(F)ccc34)CC2)C1=O", "α1", "27.8 % of Control"],
  ["CN1CCC(=NO)c2cn(CCCCN3CCC(C(=O)c4ccc(F)cc4)CC3)cc2C1=O", "α1", "69.7 % of Control"]
]}

Problem: Requested field: Anti α1 action (% of Control), 10^-8 M. Item: CN1CCC(=O)c2cn(CCCCN3CCC(C(=O)c4ccc(F)cc4)CC3)cc2C1=O
Result: 76.0 % of Control

====

Molecular target: serotonin (5-HT) (Cavia porcellus, UniProt A0A286Y537)
Sequence (A0A286Y537 1-470): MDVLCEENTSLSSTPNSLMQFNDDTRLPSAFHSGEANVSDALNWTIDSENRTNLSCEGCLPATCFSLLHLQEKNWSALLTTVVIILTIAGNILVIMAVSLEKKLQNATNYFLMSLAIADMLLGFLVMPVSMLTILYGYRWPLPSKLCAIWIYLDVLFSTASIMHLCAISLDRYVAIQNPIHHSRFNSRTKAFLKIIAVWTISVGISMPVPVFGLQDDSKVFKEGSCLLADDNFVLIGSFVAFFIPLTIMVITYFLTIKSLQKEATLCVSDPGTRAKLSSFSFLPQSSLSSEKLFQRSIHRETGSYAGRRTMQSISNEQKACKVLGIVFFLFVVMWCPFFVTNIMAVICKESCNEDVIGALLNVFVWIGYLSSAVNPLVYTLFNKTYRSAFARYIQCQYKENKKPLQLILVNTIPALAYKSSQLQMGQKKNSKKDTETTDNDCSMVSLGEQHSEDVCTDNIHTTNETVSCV
Assay: Anti-serotonin (5-HT) action (contraction of guinea pig superior mesenteric artery induced by serotonin)
Type: cell-based, Hartley male guinea pig
Conditions: test drug 10^-7 M, contraction induced by 10^-5 M 5-HT = 100%, helical superior mesenteric artery preparation, Tyrode solution, 37° C, read-out: Anti 5-HT action (% of Control), 10^-7 M
Recorded remaining activity at 0.1 µM for the following compounds
Note: unit % is implicit; provide only the numeric part.

{"columns": ["Compound", "Recorded Metric", "Reported Measurement"],
 "data": [
  ["CN1CCC(=O)c2cn(CCCCN3CCC(C(=O)c4ccc(F)cc4)CC3)cc2C1=O [Compound No. 18]", "remaining activity at 0.1 µM", 81.7],
  ["CN1CCC(=O)c2c(ccn2CCCCN2CCC(C(=O)c3ccc(F)cc3)CC2)C1=O [Compound No. 15]", "remaining activity at 0.1 µM", 75.3]
]}

Problem: Requested read-out: remaining activity at 0.1 µM. Entry: CN1CCC(=NO)c2cn(CCCCN3CCC(C(=O)c4ccc(F)cc4)CC3)cc2C1=O [Compound No. 21]
Result: 85.5

Problem: Returns the measured remaining activity at 0.1 µM for the input compound. Input: CN1CCC(=O)c2c(ccn2CCCCN2CCC(c3noc4cc(F)ccc34)CC2)C1=O [Compound No. 17]
Result: 55.2

====

Biological target: serotonin (5-HT) (Cavia porcellus, UniProt A0A286Y537)
Experiment: Anti-serotonin (5-HT) action (contraction of guinea pig superior mesenteric artery induced by serotonin)
Assay type: cell-based, Hartley male guinea pig
Details: test drug 10^-6 M, contraction induced by 10^-5 M 5-HT = 100%, helical superior mesenteric artery preparation, Tyrode solution, 37° C, read-out: Anti 5-HT action (% of Control), 10^-6 M
remaining activity at 1 µM for assorted compounds
Value expressed in %; do not type the unit.

Worked cases, answers included:
{"columns": ["Line Notation", "Tgt", "Recorded Metric", "Reported Measurement"],
 "data": [
  ["CN1CCC(=O)c2c(ccn2CCCCN2CCC(C(=O)c3ccc(F)cc3)CC2)C1=O", "serotonin (5-HT) (Cavia porcellus, UniProt A0A286Y537)", "remaining activity at 1 µM", 26.6],
  ["CN1CCC(=NO)c2cn(CCCCN3CCC(C(=O)c4ccc(F)cc4)CC3)cc2C1=O", "serotonin (5-HT) (Cavia porcellus, UniProt A0A286Y537)", "remaining activity at 1 µM", 24.9],
  ["CN1CCC(=O)c2c(ccn2CCCCN2CCC(c3noc4cc(F)ccc34)CC2)C1=O", "serotonin (5-HT) (Cavia porcellus, UniProt A0A286Y537)", "remaining activity at 1 µM", 8.9]
]}

For the next question, use this compound.
Problem: Suppose we examine the compound CN1CCC(=O)c2cn(CCCCN3CCC(C(=O)c4ccc(F)cc4)CC3)cc2C1=O ; what remaining activity at 1 µM value has been reported?
Result: 25.3
